- assay_summary: Cytotoxicity in tauRD-DsRed 293 cells
- Assay type: cell-based
- assay_context: human, 50% of viability
measurement_type: IC50 (µM)
Write the number in µM without appending the unit.

Sample Cc1ccc(-c2cc(-c3ccncc3)nc3ccccc23)cc1 [compound (I)] — what was its IC50? 25.7
